Field: inhibition. Provide a value for each of the molecules that follow.
Molecular target: G-protein coupled receptor 183 (Homo sapiens) (UniProt P32249)
Sequence (P32249 whole entry, looked up, the tested form may be a part): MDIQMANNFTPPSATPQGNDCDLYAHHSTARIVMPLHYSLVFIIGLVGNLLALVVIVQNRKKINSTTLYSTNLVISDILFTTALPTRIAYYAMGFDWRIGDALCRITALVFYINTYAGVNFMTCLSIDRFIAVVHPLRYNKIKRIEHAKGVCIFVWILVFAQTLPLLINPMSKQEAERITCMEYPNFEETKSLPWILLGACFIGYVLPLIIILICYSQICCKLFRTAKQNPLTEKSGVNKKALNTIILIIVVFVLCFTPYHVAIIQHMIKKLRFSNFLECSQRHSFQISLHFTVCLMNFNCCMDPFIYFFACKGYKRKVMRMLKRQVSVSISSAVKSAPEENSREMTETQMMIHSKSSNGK
Assay: EBI2 receptor antagonists, beta-arrestin recruitment, primary screen, cell-based, luminescence, 7a,25-OHC stimulation, uHTS (AID 651636);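 note: enzyme fragment complementation signal reports receptor beta-arrestin coupling in cells; 0% = agonist plus DMSO wells and 100% = wells without agonist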
Conditions: 7a,25-OHC stimulated, at 5 µM, stronger effect = higher value
Out of some 360,000 compounds screened, about 3,000 (0.83%) were called active. Many of the other results were omitted from the sample, so actives are more common in it than they were.
Report as a plain number; the unit % is understood.

Prompt: Which inhibition value belongs to `CCC(=C/c1sc2ccc3ccccc3c2[n+]1C)/C=C1\Sc2ccc3ccccc3c2N1C` ?
Response: 1.97

Prompt: Which inhibition value belongs to CCNC(=O)NC(=O)C(C)OC(=O)c1cc(S(=O)(=O)N2CCCCCC2)ccc1OC (stereo not given) ?
Response: -0.223

Prompt: Which inhibition value belongs to `CC(C)(C)C(=O)Nc1cccc(-c2ccc[nH]2)n1` ?
Response: -1.86

Prompt: Which inhibition value belongs to COc1ccc(Br)cc1CN(C)C(=O)C1CC(=O)N(C2CCCC2)C1 (stereo not given) ?
Response: 7.14

Prompt: Which inhibition value belongs to `Cc1[nH]nc(SCC(=O)NCC(C)C)c1[N+](=O)[O-]` ?
Response: -0.06

Prompt: Which inhibition value belongs to `Cc1ccc([N+](=O)[O-])cc1S(=O)(=O)N1CCCN(C)CC1` ?
Response: -7.92

Prompt: Which inhibition value belongs to CC1(C(=O)Nc2ccc3c(c2)OCCO3)CCN1C(=O)Cc1cc(F)ccc1F (stereo not given) ?
Response: -9.9

Prompt: Which inhibition value belongs to `C=CCOc1ccc(/C=C/C(=O)OCC(=O)NC2CCCCCC2)cc1` ?
Response: 0.205

Prompt: Which inhibition value belongs to Cc1c(CN2CCCC(C(=O)c3cccc(Cl)c3)C2)c(=O)n(-c2ccccc2)n1C (stereo not given) ?
Response: 5.82

Prompt: Which inhibition value belongs to `Cn1c(=O)c(=O)n(C)c2cc(S(=O)(=O)CCC(=O)N3CCCCC3)ccc21` ?
Response: -3.96
